- Tested on: UCD52 (cells of a triple-negative basal-like breast cancer xenograft)
- assaySummary: cell viability of combination (% of vehicle); higher = less cytotoxic
- assayConditions: 1 µM; 72 h; partner dose: 10 nM
Collected cell viability of combination values appear next to each entry.
Answer field: number only, no words.

- compound: "CNCCCC12CCC(c3ccccc31)c1ccccc12.Cl [Maprotiline HCl] + CC(C)C[C@H](NC(=O)[C@H](CCc1ccccc1)NC(=O)CN1CCOCC1)C(=O)N[C@@H](Cc1ccccc1)C(=O)N[C@@H](CC(C)C)C(=O)[C@@]1(C)CO1 [Carfilzomib]"
  studySystem: "UCD52"
  measurement: 55.5

Turning to the following compound.
Problem: Consider the compound O=C(C=Cn1cnc(-c2cc(C(F)(F)F)cc(C(F)(F)F)c2)n1)NNc1cnccn1 + CC(C)C[C@H](NC(=O)[C@H](CCc1ccccc1)NC(=O)CN1CCOCC1)C(=O)N[C@@H](Cc1ccccc1)C(=O)N[C@@H](CC(C)C)C(=O)[C@@]1(C)CO1 [Carfilzomib] and give its recorded cell viability of combination.
Result: 40.1

---

- System: HCI16 (cells of a triple-negative basal-like breast cancer xenograft)
- assaySummary: cell viability (% of vehicle); higher = less cytotoxic
- assayConditions: 10 µM; 72 h
The threshold is 100. Values of cell viability beneath it are tagged 1.0; values meeting or exceeding it are tagged 0.0.

# example entries with known answers
- molecule: "NS(=O)(=O)c1cc2c(cc1Cl)NCNS2(=O)=O [Hydrochlorothiazide]"
  classification: 0.0
- molecule: "Cn1nnc(-c2ccc(-c3ccc(N4CC(CO)OC4=O)cc3F)cn2)n1 (configuration not stated)"
  classification: 0.0
- molecule: "O=c1oc2cc(O)ccc2s1"
  classification: 0.0
- molecule: "Cl.O=c1n(CCCN2CCN(c3cccc(Cl)c3)CC2)nc2ccccn12 [Trazodone HCl]"
  classification: 0.0

Problem: Could you please tell me whether cell viability recorded for NS(=O)(=O)c1cc2c(cc1Cl)NC(C(Cl)Cl)NS2(=O)=O (configuration not stated) [Trichlormethiazide] is less than 100?
Result: 0.0

Problem: Could you please tell me whether cell viability recorded for "Cc1cc(Nc2ncc(Cl)c(Nc3ccccc3S(=O)(=O)C(C)C)n2)c(OC(C)C)cc1C1CCNCC1" is less than 100?
Result: 1.0

Problem: Could you please tell me whether cell viability recorded for "Cc1ccc(=O)n(-c2ccccc2)c1" is less than 100?
Result: 1.0

---

- Tested on: UCD52
- assaySummary: cell viability (% of vehicle); higher = less cytotoxic
- assayConditions: 10 µM; 72 h
The threshold is 80. Values of cell viability beneath it are tagged Y; values meeting or exceeding it are tagged N.

- compound: "CCC(CO)Nc1nc(NCc2ccccc2)c2ncn(C(C)C)c2n1 (stereo unspecified) [Roscovitine (Seliciclib,CYC202)]"
  classification: "N"

Problem: Could you please tell me whether cell viability recorded for "CCOC(=O)C1=C[C@]2(CC)CCCN3CCc4c(n1c1ccccc41)[C@@H]32" is less than 80?
Result: N

Problem: Could you please tell me whether cell viability recorded for Nc1nc(=O)c2nc(CNc3ccc(C(=O)NC(CCC(=O)O)C(=O)O)cc3)cnc2[nH]1 (stereo unspecified) is less than 80?
Result: N

Problem: Could you please tell me whether cell viability recorded for "CC(=O)c1cc2c(o1)C(=O)c1ccccc1C2=O" is less than 80?
Result: Y

---

- Test system: HCI01 (cells of a triple-negative basal-like breast cancer xenograft)
- assaySummary: cell viability (% of vehicle); higher = less cytotoxic
- assayConditions: 10 µM; 72 h
Collected cell viability values appear next to each entry.
Answer field: number only, no words.

- compound: "C=CC[N+]1(C2CC3C4CCC5CC(O)C(N6CCOCC6)CC5(C)C4CCC3(C)C2OC(C)=O)CCCC1.[Br-] (stereo not given) [Rocuronium Bromide]"
  measurement: 100
- compound: "CC(C=CC1=C(C)CCCC1(C)C)=CC=CC(C)=CC(=O)O"
  measurement: 139
- compound: "CCCCCCCCCCCCCCCCOP(=O)([O-])OCC[N+](C)(C)C"
  measurement: 98.9
- compound: "CS(=O)(=O)OCCCCOS(C)(=O)=O"
  measurement: 100

Turning to the following compound.
Problem: Consider the compound CC(=O)SCC(Cc1ccccc1)C(=O)NCC(=O)OCc1ccccc1 (stereo not given) and give its recorded cell viability.
Result: 106
